// data source = paper PMC11339798

target_or_test_system: LecA (Pseudomonas aeruginosa)
measurement_description: Competitive binding assay for LecA based on fluorescence polarization
attribute_measured: IC50 (µM)
Output spec: scalar in µM, unitless text.

Solved entries (count: 2):
molecule	target_or_test_system	readout_value
CC(C)CC(S)C(=O)Nc1ccc(S[C@@H]2O[C@H](CO)[C@H](O)[C@H](O)[C@H]2O)cc1 (stereo partly drawn)	LecA (Pseudomonas aeruginosa)	19.8
CC(C)CC(SSC(CC(C)C)C(=O)Nc1ccc(S[C@@H]2O[C@H](CO)[C@H](O)[C@H](O)[C@H]2O)cc1)C(=O)Nc1ccc(S[C@@H]2O[C@H](CO)[C@H](O)[C@H](O)[C@H]2O)cc1 (stereo partly drawn)	LecA (Pseudomonas aeruginosa)	5.7

Turning to the following molecule.
Data request, read-out IC50, for O=C(Nc1ccc(S[C@@H]2O[C@H](CO)[C@H](O)[C@H](O)[C@H]2O)cc1)C(S)Cc1ccccc1 (stereo partly drawn)
18.1

* * *

target_or_test_system: LecA (Pseudomonas aeruginosa, UniProt Q05097)
Construct: made in house; host or cells: E. coli (plasmid pET25-pail)
Sequence (Q05097 whole entry): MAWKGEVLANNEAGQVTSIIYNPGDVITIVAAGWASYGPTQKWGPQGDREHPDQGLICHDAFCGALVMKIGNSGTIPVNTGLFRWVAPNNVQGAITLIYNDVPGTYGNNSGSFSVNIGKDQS
measurement_description: Surface plasmon resonance direct LecA binding assay (immobilized LecA)
Design: species or system P. aeruginosa
condition_summary: SPR, immobilized LecA
Measured k d by item

Solved entries (count: 3):
compound	readout_value
O=C(Nc1ccc(S[C@@H]2O[C@H](CO)[C@H](O)[C@H](O)[C@H]2O)cc1)[C@@H](S)Cc1ccccc1	72 ± 5 ×10^−4 s^−1
CC(C)C[C@H](S)C(=O)Nc1ccc(S[C@@H]2O[C@H](CO)[C@H](O)[C@H](O)[C@H]2O)cc1	85 ± 2 ×10^−4 s^−1
O=C(Nc1ccc(S[C@@H]2O[C@H](CO)[C@H](O)[C@H](O)[C@H]2O)cc1)[C@H](S)Cc1ccccc1	86 ± 20 ×10^−4 s^−1

Lookup: k d / LecA (Pseudomonas aeruginosa, UniProt Q05097) / CC(C)C[C@@H](S)C(=O)Nc1ccc(S[C@@H]2O[C@H](CO)[C@H](O)[C@H](O)[C@H]2O)cc1
82 ± 11 ×10^−4 s^−1

Lookup: k d / LecA (Pseudomonas aeruginosa, UniProt Q05097) / CC(C)CC(SSC(CC(C)C)C(=O)Nc1ccc(S[C@@H]2O[C@H](CO)[C@H](O)[C@H](O)[C@H]2O)cc1)C(=O)Nc1ccc(S[C@@H]2O[C@H](CO)[C@H](O)[C@H](O)[C@H]2O)cc1 (some centres unmarked)
2.2 ± 0.3 ×10^−4 s^−1

* * *

Measured k a by item
target_or_test_system: LecA (Pseudomonas aeruginosa)
Construct: made in house; host or cells: E. coli (plasmid pET25-pail)
measurement_description: Surface plasmon resonance direct LecA binding assay (immobilized LecA)
Design: species or system P. aeruginosa
condition_summary: SPR, immobilized LecA

Data request, read-out k a, for O=C(Nc1ccc(S[C@@H]2O[C@H](CO)[C@H](O)[C@H](O)[C@H]2O)cc1)[C@@H](S)Cc1ccccc1
0.88 ± 0.23 ×10^4 M^−1 s^−1

Data request, read-out k a, for CC(C)C[C@@H](S)C(=O)Nc1ccc(S[C@@H]2O[C@H](CO)[C@H](O)[C@H](O)[C@H]2O)cc1
1.41 ± 0.47 ×10^4 M^−1 s^−1

* * *

measurement_description: Cytotoxicity MTT assay
Format: cell-based, human
condition_summary: human, A549 cells (lung)
Measured IC50 by item

>>> print(df.to_string())
                                   molecule  readout_value
0  CC(C)CC(S)C(=O)Nc1ccc(S[C@@H]2O[C@H](CO)[C@H](O)[C@H](O)[C@H]2O)cc1 (some centres unmarked)       > 100 µM

Turning to the following molecule.
Data request, read-out IC50, for O=C(Nc1ccc(S[C@@H]2O[C@H](CO)[C@H](O)[C@H](O)[C@H]2O)cc1)C(S)Cc1ccccc1 (some centres unmarked)
> 100 µM

* * *

measurement_description: Disulfide formation assay: thiol stability in P. aeruginosa culture supernatant (LC-MS)
Type: in vitro ADME
condition_summary: Pseudomonas aeruginosa, pH 7.4, P. aeruginosa culture supernatant, 37 °C, read-out: thiol half-life (conversion into disulfide)
Measured half-life at 1.25 mM by item
Output spec: scalar in min, unitless text.

>>> df
                                   compound  readout_value
0  O=C(Nc1ccc(S[C@@H]2O[C@H](CO)[C@H](O)[C@H](O)[C@H]2O)cc1)C(S)Cc1ccccc1 (some centres unmarked)             80

Turning to the following compound.
Data request, read-out half-life at 1.25 mM, for CC(C)CC(S)C(=O)Nc1ccc(S[C@@H]2O[C@H](CO)[C@H](O)[C@H](O)[C@H]2O)cc1 (some centres unmarked)
46

* * *

target_or_test_system: LasB (Pseudomonas aeruginosa)
Construct: P. aeruginosa PA14 culture supernatant; made in house; host or cells: native secreted enzyme purified from P. aeruginosa PA14 culture supernatant (not recombinant)
Sequence (Q02RJ6 198-498): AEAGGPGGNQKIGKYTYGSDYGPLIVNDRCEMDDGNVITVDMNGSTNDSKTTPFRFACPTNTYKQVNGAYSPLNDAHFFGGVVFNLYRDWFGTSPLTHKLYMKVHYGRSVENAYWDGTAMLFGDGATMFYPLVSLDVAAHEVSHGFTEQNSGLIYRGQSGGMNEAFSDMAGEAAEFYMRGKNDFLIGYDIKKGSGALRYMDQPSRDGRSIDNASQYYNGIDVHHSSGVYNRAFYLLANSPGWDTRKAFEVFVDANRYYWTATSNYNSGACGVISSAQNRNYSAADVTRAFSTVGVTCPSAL
measurement_description: FRET-based in vitro LasB inhibition (proteolysis) assay
Format: biochemical, P. aeruginosa PA14
attribute_measured: IC50 (nM)
Output spec: scalar in nM, unitless text.

>>> df
                                   compound  attribute_measured  readout_value
0  O=C(Nc1ccc(S[C@@H]2O[C@H](CO)[C@H](O)[C@H](O)[C@H]2O)cc1)C(S)Cc1ccccc1 (stereo partly drawn) [Compound 11]                IC50            300
1  CC(C)C[C@H](S)C(=O)Nc1ccc(S[C@@H]2O[C@H](CO)[C@H](O)[C@H](O)[C@H]2O)cc1 [Compound 25]                IC50            770
2  CC(C)CC(S)C(=O)Nc1ccc(S[C@@H]2O[C@H](CO)[C@H](O)[C@H](O)[C@H]2O)cc1 (stereo partly drawn) [Compound 12]                IC50            800
3  CC(C)C[C@@H](S)C(=O)Nc1ccc(S[C@@H]2O[C@H](CO)[C@H](O)[C@H](O)[C@H]2O)cc1 [Compound 18]                IC50            510

Data request, read-out IC50, for O=C(Nc1ccc(S[C@@H]2O[C@H](CO)[C@H](O)[C@H](O)[C@H]2O)cc1)[C@H](S)Cc1ccccc1 [Compound 17]
730

Data request, read-out IC50, for O=C(Nc1ccc(S[C@@H]2O[C@H](CO)[C@H](O)[C@H](O)[C@H]2O)cc1)[C@@H](S)Cc1ccccc1 [Compound 24]
220

* * *

Measured IC50 by item
measurement_description: Cytotoxicity MTT assay
Format: cell-based, human
condition_summary: human, HEK293 cells (kidney)

In [3]: df
Out[3]:
                                   compound  attribute_measured  readout_value
0  CC(C)CC(S)C(=O)Nc1ccc(S[C@@H]2O[C@H](CO)[C@H](O)[C@H](O)[C@H]2O)cc1 (some centres unmarked) [Compound 12]                IC50       > 100 µM

Turning to the following compound.
Data request, read-out IC50, for O=C(Nc1ccc(S[C@@H]2O[C@H](CO)[C@H](O)[C@H](O)[C@H]2O)cc1)C(S)Cc1ccccc1 (some centres unmarked) [Compound 11]
> 100 µM

* * *

measurement_description: Kinetic solubility
Format: physicochemical
condition_summary: aqueous buffer, kinetic from dmso stock; 10 mm PBS with 2% DMSO at 37 °C
attribute_measured: solubility kinetic

Data request, read-out solubility kinetic, for CC(C)CC(SSC(CC(C)C)C(=O)Nc1ccc(S[C@@H]2O[C@H](CO)[C@H](O)[C@H](O)[C@H]2O)cc1)C(=O)Nc1ccc(S[C@@H]2O[C@H](CO)[C@H](O)[C@H](O)[C@H]2O)cc1 (stereo partly shown)
> 600 µM

* * *

target_or_test_system: LecA (Pseudomonas aeruginosa, UniProt Q05097)
measurement_description: Surface plasmon resonance direct LecA binding assay (immobilized LecA)
attribute_measured: pKd
Units for pKd: none; it is -log10 of a concentration expressed in mol/L.

Solved entries (count: 2):
molecule	pKd
O=C(Nc1ccc(S[C@@H]2O[C@H](CO)[C@H](O)[C@H](O)[C@H]2O)cc1)[C@H](S)Cc1ccccc1 [Compound 17]	5.89
CC(C)CC(SSC(CC(C)C)C(=O)Nc1ccc(S[C@@H]2O[C@H](CO)[C@H](O)[C@H](O)[C@H]2O)cc1)C(=O)Nc1ccc(S[C@@H]2O[C@H](CO)[C@H](O)[C@H](O)[C@H]2O)cc1 (some centres unmarked) [Compound 27]	8.35

Data request, read-out pKd, for CC(C)C[C@H](S)C(=O)Nc1ccc(S[C@@H]2O[C@H](CO)[C@H](O)[C@H](O)[C@H]2O)cc1 [Compound 25]
6.00

Data request, read-out pKd, for CC(C)C[C@@H](S)C(=O)Nc1ccc(S[C@@H]2O[C@H](CO)[C@H](O)[C@H](O)[C@H]2O)cc1 [Compound 18]
6.20

Data request, read-out pKd, for O=C(Nc1ccc(S[C@@H]2O[C@H](CO)[C@H](O)[C@H](O)[C@H]2O)cc1)[C@@H](S)Cc1ccccc1 [Compound 24]
6.08
